system tested: rat α1B+α2b+β1b channels (N-type channels) (Rattus norvegicus, UniProt Q02294)
Construct: expressed in transfected cells
Sequence (Q02294 whole entry): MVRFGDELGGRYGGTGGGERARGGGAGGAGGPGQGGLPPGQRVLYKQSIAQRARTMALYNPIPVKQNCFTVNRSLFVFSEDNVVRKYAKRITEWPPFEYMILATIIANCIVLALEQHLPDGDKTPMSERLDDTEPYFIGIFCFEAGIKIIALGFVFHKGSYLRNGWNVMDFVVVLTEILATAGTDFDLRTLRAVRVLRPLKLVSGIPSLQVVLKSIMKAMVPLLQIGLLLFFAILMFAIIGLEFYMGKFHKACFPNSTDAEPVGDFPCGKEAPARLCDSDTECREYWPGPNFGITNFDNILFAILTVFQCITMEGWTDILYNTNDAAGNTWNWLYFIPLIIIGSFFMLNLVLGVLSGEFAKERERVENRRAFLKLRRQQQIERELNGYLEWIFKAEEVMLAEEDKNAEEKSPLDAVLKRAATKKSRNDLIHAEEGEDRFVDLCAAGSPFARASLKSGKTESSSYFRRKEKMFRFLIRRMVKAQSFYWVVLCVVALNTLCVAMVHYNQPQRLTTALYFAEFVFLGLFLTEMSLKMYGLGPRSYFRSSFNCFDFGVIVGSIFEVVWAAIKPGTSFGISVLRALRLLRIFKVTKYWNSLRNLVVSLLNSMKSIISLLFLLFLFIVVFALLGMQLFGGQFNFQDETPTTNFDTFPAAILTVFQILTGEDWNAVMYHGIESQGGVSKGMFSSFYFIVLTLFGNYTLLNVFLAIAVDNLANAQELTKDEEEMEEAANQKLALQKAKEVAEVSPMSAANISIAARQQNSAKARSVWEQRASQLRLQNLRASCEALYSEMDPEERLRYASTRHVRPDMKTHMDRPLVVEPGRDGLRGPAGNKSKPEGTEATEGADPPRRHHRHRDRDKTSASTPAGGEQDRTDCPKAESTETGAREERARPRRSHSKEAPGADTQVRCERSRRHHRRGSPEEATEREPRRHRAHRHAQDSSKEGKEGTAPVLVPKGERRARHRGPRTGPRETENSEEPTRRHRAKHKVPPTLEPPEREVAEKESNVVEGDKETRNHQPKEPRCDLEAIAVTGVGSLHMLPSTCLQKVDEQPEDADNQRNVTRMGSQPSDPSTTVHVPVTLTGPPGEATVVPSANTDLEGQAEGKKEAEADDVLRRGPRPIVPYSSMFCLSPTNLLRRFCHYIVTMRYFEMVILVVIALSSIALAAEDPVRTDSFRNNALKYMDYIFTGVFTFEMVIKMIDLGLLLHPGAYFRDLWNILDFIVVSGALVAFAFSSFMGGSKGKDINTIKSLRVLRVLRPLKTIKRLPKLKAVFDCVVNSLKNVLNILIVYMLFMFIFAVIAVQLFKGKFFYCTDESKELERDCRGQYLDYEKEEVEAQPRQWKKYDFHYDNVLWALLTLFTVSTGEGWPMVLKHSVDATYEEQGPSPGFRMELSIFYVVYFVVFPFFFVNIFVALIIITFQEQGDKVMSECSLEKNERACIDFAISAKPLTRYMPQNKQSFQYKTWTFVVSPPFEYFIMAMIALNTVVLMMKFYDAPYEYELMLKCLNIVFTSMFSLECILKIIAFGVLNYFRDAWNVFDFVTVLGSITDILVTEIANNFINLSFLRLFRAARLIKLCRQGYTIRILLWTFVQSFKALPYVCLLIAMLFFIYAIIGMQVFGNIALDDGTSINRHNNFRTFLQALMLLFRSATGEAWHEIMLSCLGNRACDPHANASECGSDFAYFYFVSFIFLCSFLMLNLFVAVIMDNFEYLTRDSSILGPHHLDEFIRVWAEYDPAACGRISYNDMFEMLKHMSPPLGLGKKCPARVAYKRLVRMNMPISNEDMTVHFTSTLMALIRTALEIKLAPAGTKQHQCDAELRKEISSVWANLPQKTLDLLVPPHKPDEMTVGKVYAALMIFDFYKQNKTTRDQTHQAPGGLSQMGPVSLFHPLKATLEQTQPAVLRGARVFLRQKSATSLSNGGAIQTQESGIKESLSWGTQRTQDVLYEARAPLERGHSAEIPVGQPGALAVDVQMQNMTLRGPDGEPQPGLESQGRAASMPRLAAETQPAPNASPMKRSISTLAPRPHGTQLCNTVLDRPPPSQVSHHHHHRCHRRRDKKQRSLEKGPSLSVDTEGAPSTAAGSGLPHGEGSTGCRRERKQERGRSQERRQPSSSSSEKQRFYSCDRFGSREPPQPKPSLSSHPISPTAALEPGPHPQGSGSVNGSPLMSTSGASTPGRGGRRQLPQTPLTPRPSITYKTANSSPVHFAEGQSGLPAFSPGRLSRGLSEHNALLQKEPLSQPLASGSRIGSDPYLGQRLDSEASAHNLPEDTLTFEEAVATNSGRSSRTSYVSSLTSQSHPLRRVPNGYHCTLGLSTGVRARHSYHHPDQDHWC
measurement description: Block of α1B N-type channels, whole cell patch recordings (Example 6)
Type: cell-based
assay setup: 0.067 Hz; HEK 293, 5 mM barium as charge carrier; read-out: Block of α1B N-type Channels IC50, 0.067 Hz
Experimental: Antagonist activity was measured using whole cell patch recordings on human embryonic kidney cells either stably or transiently expressing rat α1B+α2b+β1b channels (N-type channels) with 5 mM barium as a charge carrier. For transient expression, host cells, such as human embryonic kidney cells, HEK 293 (ATCC# CRL 1573) were grown in standard DMEM medium supplemented with 2 mM glutamine and 10% fetal bovine serum. […]
property label: IC50 (µM)
Just the number please, in µM, no unit attached.

Q: Record request: IC50 value, item O=C(CC(c1ccccc1)c1ccccc1)N1CCN(C2c3ccccc3Oc3ccccc32)CC1 [Compound P16]
Result: 0.29

Q: // repeat for O=C(CC(c1ccccc1)c1ccccc1)N1CCN(C(c2ccccc2)c2ccc(OCc3ccccc3)cc2)CC1 (stereo not shown) [Compound P17] and report
Result: 0.286

Q: // repeat for N#CC1CN(C(c2ccccc2)c2ccccc2)CCN1C(=O)CC(c1ccccc1)c1ccccc1 (stereo not shown) [Compound P45] and report
Result: 0.23

Q: // repeat for Cl.O=C(O)C1CN(C(c2ccccc2)c2ccccc2)CCN1C(=O)CC(c1ccccc1)c1ccccc1 (stereo not shown) [Compound P8] and report
Result: 0.23

Q: // repeat for COc1ccc(C(c2ccccc2)N2CCN(C(=O)CC(c3ccccc3)c3ccccc3)CC2)cc1 (stereo not shown) [Compound P20] and report
Result: 0.32

Q: // repeat for O=C(O)C1CN(C(c2ccccc2)c2ccccc2)CCN1C(=O)CC1c2ccccc2-c2ccccc21 (stereo not shown) [Compound P38] and report
Result: 0.2

Q: // repeat for CCOC(=O)C1CN(C(c2ccccc2)c2ccccc2)CCN1C(=O)CC(c1ccccc1)c1ccccc1 (stereo not shown) [Compound P41] and report
Result: 0.42

Q: // repeat for O=C(CC(c1ccccc1)c1ccccc1)N1CCN(C(c2ccccc2)c2cccc(Cl)c2)CC1 (stereo not shown) [Compound P36] and report
Result: 0.114

Q: // repeat for O=C(CC(c1ccccc1)c1ccccc1)N1CCN(C(c2ccccc2)c2ccc(O)cc2)CC1 (stereo not shown) [Compound P49] and report
Result: 0.34

Q: // repeat for COc1ccc(C(c2ccc(OC)cc2)N2CCN(C(=O)CC(c3ccccc3)c3ccccc3)CC2)cc1 [Compound P19] and report
Result: 0.36

Q: // repeat for CC1CN(C(c2ccccc2)c2ccccc2)CCN1C(=O)CC(c1ccccc1)c1ccccc1 (stereo not shown) [Compound P37] and report
Result: 0.162

Q: // repeat for O=C(CC(c1ccccc1)c1ccccc1)N1CCN([C@@H](c2ccccc2)c2ccc(Cl)cc2)CC1 [Compound P47] and report
Result: 0.237

Q: // repeat for O=C(CC(c1ccccc1)c1ccccc1)N1CCN(C(c2ccccc2)c2cccc(Cl)c2Cl)CC1 (stereo not shown) [Compound P15] and report
Result: 0.348

Q: // repeat for COc1cc(OC)cc(C(c2ccccc2)N2CCN(C(=O)CC(c3ccccc3)c3ccccc3)CC2)c1 (stereo not shown) [Compound P14] and report
Result: 0.32

###

Kindly state pIC50 for each of the entries shown.
system tested: human α1G subunits (T-type channels) (Homo sapiens)
Construct: expressed in transfected cells
Sequence (O43497 whole entry): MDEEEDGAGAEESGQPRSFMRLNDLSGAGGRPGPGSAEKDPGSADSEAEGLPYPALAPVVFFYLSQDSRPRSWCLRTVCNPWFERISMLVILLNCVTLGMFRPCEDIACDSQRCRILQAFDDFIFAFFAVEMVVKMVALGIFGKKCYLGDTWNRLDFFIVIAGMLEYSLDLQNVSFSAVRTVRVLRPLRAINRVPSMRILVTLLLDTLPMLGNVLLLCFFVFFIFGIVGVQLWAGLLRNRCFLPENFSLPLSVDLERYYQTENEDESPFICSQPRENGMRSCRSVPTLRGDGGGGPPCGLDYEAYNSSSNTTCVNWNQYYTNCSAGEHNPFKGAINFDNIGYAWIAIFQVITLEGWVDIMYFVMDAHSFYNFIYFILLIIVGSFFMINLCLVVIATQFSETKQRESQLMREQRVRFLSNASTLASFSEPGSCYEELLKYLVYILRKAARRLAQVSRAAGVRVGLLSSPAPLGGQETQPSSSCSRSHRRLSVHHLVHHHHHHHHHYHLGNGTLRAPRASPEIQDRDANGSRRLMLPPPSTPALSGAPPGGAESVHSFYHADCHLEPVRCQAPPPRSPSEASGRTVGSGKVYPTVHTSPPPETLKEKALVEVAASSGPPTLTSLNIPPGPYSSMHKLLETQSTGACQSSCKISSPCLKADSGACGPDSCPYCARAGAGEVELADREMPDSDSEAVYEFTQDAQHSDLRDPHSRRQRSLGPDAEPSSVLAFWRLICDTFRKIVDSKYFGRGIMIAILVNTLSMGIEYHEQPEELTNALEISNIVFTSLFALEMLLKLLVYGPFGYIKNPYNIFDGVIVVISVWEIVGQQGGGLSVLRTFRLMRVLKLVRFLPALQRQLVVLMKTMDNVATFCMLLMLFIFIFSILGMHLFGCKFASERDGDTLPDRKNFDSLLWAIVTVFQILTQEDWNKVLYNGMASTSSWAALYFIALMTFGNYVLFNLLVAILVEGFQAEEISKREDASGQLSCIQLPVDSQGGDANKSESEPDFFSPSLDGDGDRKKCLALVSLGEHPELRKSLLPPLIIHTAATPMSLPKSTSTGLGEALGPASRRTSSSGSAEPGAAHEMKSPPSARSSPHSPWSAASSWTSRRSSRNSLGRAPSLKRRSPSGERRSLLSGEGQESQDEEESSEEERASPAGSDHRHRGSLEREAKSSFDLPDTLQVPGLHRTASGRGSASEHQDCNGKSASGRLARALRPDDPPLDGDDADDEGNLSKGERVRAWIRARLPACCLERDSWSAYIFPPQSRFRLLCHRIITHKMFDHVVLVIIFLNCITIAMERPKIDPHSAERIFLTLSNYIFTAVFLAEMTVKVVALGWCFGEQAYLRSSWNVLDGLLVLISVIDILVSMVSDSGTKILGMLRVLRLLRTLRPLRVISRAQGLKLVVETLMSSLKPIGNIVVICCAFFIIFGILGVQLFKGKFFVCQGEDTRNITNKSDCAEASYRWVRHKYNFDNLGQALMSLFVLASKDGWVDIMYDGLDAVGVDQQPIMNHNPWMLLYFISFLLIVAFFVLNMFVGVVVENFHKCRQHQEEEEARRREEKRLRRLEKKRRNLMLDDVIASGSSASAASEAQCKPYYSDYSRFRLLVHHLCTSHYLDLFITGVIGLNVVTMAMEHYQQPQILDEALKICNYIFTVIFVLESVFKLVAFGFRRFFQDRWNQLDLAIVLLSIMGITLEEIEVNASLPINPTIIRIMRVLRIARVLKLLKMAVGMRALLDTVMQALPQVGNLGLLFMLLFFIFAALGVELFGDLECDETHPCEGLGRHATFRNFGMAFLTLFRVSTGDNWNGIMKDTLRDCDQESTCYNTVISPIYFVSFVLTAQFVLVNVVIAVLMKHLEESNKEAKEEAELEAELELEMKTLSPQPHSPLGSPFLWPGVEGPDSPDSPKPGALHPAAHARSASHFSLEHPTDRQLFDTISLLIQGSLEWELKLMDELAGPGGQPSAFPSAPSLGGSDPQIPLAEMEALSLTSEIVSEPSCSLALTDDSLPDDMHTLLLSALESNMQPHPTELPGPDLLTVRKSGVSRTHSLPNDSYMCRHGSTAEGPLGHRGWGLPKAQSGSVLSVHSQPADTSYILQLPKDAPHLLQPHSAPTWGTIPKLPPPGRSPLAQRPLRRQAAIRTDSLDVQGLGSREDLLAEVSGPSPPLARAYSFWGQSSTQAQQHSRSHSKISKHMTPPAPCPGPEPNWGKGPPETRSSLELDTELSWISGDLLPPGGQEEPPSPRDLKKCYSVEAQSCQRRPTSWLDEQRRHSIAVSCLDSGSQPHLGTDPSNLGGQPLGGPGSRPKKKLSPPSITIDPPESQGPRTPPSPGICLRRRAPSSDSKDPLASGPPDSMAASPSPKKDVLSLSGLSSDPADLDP
measurement description: Block of α1G T-type channels, patch clamp in HEK cell lines (Example 8)
Type: cell-based
assay setup: 100 mV (non-inactivating protocol); read-out: Block of α1G T-type Channels IC50, 100 mV
Expect pIC50 as a plain number equal to -log10 of the molar concentration.

Q: Record request: pIC50 value, item `COc1ccc(C(c2ccc(OC)cc2)N2CCN(C(=O)CC(c3ccccc3)c3ccccc3)CC2)cc1`
Result: 6.13

Q: // repeat for O=C(CC(c1ccccc1)c1ccccc1)N1CCN(C(c2ccccc2)c2ccc(Cl)cc2Cl)CC1 (stereo not shown) and report
Result: 7.48

Q: // repeat for CCOC(=O)C1CN(C(c2ccccc2)c2ccccc2)CCN1C(=O)CC(c1ccccc1)c1ccccc1 (stereo not shown) [Compound P41] and report
Result: 6.00

Q: // repeat for CC1CN(C(c2ccccc2)c2ccccc2)CCN1C(=O)CC(c1ccccc1)c1ccccc1 (stereo not shown) and report
Result: 6.00

###

Kindly state pIC50 for each of the entries shown.
system tested: rat α1B+α2b+β1b channels (N-type channels) (Rattus norvegicus, UniProt Q02294)
Construct: expressed in transfected cells
measurement description: Block of α1B N-type channels, whole cell patch recordings (Example 6)
Type: cell-based
assay setup: 0.2 Hz; HEK 293, 5 mM barium as charge carrier; read-out: Block of α1B N-type Channels IC50, 0.2 Hz
Expect pIC50 as a plain number equal to -log10 of the molar concentration.

Q: Record request: pIC50 value, item O=C(CC(c1ccccc1)c1ccccc1)N1CCN(C(c2ccccc2)c2ccc3c(c2)OCO3)CC1 (stereo not drawn)
Result: 6.86

Q: // repeat for O=C(O)C1CN(C(c2ccccc2)c2ccccc2)CCN1C(=O)CC(c1ccccc1)c1ccccc1 (stereo not drawn) and report
Result: 5.83

Q: // repeat for CCOC(=O)C1CN(C(c2ccccc2)c2ccccc2)CCN1C(=O)CC(c1ccccc1)c1ccccc1 (stereo not drawn) [Compound P41] and report
Result: 6.41

###

system tested: rat α1B+α2b+β1b channels (N-type channels) (Rattus norvegicus)
Construct: expressed in transfected cells
measurement description: Block of α1B N-type channels, whole cell patch recordings (Example 6)
Assay type: cell-based
assay setup: 0.2 Hz; HEK 293, 5 mM barium as charge carrier; read-out: Block of α1B N-type Channels IC50, 0.2 Hz
Kindly state pIC50 for each of the entries shown.
Expect pIC50 as a plain number equal to -log10 of the molar concentration.

Q: Record request: pIC50 value, item O=C(CC(c1ccccc1)c1ccccc1)N1CCN(C(c2ccccc2)c2ccc(C(F)(F)F)cc2)CC1 (stereo not shown) [Compound P1]
Result: 7.13

Q: // repeat for O=C(CC(c1ccccc1)c1ccccc1)N1CCN(C(c2ccccc2)c2cccc(Cl)c2Cl)CC1 (stereo not shown) and report
Result: 6.66

Q: // repeat for CCOC(=O)C1CN(C(c2ccccc2)c2ccccc2)CCN1C(=O)CC(c1ccccc1)c1ccccc1 (stereo not shown) [Compound P43] and report
Result: 7.08

Q: // repeat for N#CC1CN(C(c2ccccc2)c2ccccc2)CCN1C(=O)CC(c1ccccc1)c1ccccc1 (stereo not shown) and report
Result: 6.66

Q: // repeat for CCOC(=O)C1CN(C(c2ccccc2)c2ccccc2)CCN1C(=O)CC1c2ccccc2-c2ccccc21 (stereo not shown) and report
Result: 6.72

Q: // repeat for O=C(CC(c1ccccc1)c1ccccc1)N1CCN(C(c2ccccc2)c2ccc(F)cc2)CC1 (stereo not shown) and report
Result: 6.42

Q: // repeat for O=C(O)C1CN(C(c2ccccc2)c2ccccc2)CCN1C(=O)CC1c2ccccc2-c2ccccc21 (stereo not shown) and report
Result: 6.80

Q: // repeat for COc1ccc(C(c2ccc3c(c2)OCO3)N2CCN(C(=O)CC(c3ccccc3)c3ccccc3)CC2)cc1 (stereo not shown) and report
Result: 6.27

Q: // repeat for O=C(CC(c1ccccc1)c1ccccc1)N1CCN(C(c2ccccc2)c2cc(C(F)(F)F)cc(C(F)(F)F)c2)CC1 (stereo not shown) [Compound P10] and report
Result: 6.35

Q: // repeat for O=C(CC(c1ccccc1)c1ccccc1)N1CCN(C(c2ccccc2)c2ccc(O)cc2)CC1 (stereo not shown) and report
Result: 6.49

Q: // repeat for O=C(CC(c1ccccc1)c1ccccc1)N1CCN(C(c2ccccc2)c2cc(Cl)cc(Cl)c2)CC1 (stereo not shown) and report
Result: 6.77

Q: // repeat for O=C(CC(c1ccccc1)c1ccccc1)N1CCN(C(c2ccccc2)c2ccc(OCc3ccccc3)cc2)CC1 (stereo not shown) and report
Result: 6.63

Q: // repeat for O=C(CC(c1ccccc1)c1ccccc1)N1CCN(C(c2ccccc2)c2ccccc2Cl)CC1 (stereo not shown) and report
Result: 7.04

Q: // repeat for Cl.O=C(O)C1CN(C(c2ccccc2)c2ccccc2)CCN1C(=O)CC(c1ccccc1)c1ccccc1 (stereo not shown) and report
Result: 6.85

Q: // repeat for COc1cc(OC)cc(C(c2ccccc2)N2CCN(C(=O)CC(c3ccccc3)c3ccccc3)CC2)c1 (stereo not shown) and report
Result: 6.68

###

system tested: rat α1B+α2b+β1b channels (N-type channels) (Rattus norvegicus, UniProt Q02294)
Construct: expressed in transfected cells
measurement description: Block of α1B N-type channels, whole cell patch recordings (Example 6)
Assay type: cell-based
assay setup: 0.067 Hz; HEK 293, 5 mM barium as charge carrier; read-out: Block of α1B N-type Channels IC50, 0.067 Hz
property label: pIC50
Expect pIC50 as a plain number equal to -log10 of the molar concentration.

Q: Record request: pIC50 value, item O=C(CC(c1ccccc1)c1ccccc1)N1CCN(C(c2ccccc2)c2ccc(F)cc2)CC1 (stereo not shown) [Compound P24]
Result: 6.22

Q: // repeat for Cc1ccc(C(c2ccccc2)N2CCN(C(=O)CC(c3ccccc3)c3ccccc3)CC2)c(C)c1 (stereo not shown) [Compound P18] and report
Result: 6.49

Q: // repeat for O=C(CC(c1ccccc1)c1ccccc1)N1CCN(C(c2ccccc2)c2ccc(C(F)(F)F)cc2)CC1 (stereo not shown) [Compound P1] and report
Result: 7.00

Q: // repeat for O=C(CC(c1ccccc1)c1ccccc1)N1CCN(C(c2ccccc2)c2c(Cl)cccc2Cl)CC1 (stereo not shown) [Compound P13] and report
Result: 6.52

Q: // repeat for O=C(CC(c1ccccc1)c1ccccc1)N1CCN(C2c3ccccc3S(=O)(=O)c3ccccc32)CC1 [Compound P27] and report
Result: 6.07

Q: // repeat for O=C(CC(c1ccccc1)c1ccccc1)N1CCN(C(c2ccccc2)c2cc(C(F)(F)F)cc(C(F)(F)F)c2)CC1 (stereo not shown) [Compound P10] and report
Result: 6.26

Q: // repeat for CCOC(=O)C1CN(C(c2ccccc2)c2ccccc2)CCN1C(=O)CC(c1ccccc1)c1ccccc1 (stereo not shown) [Compound P5] and report
Result: 6.80
